Source listed as patent US10239873B2.

What follows is a collection of IC50 values obtained with TBK1 (Homo sapiens).
quantity_name: IC50 (nM)

smiles_data: CNS(=O)(=O)c1cccc(-c2cnc3[nH]cc(C4=CCN(C(=O)OC(C)(C)C)CC4)c3c2)c1
tested_on: TBK1 (Homo sapiens)
IC50, nM: 59

(P) COc1ccc(-c2cnc3[nH]cc(C4=CCN(C(=O)c5cccs5)CC4)c3c2)cc1S(=O)(=O)N1CCOCC1
(Q) CC(C)(C)OC(=O)N1CC=C(c2c[nH]c3ncc(-c4ccc(N5CCOCC5)cc4)cc23)CC1
Which value of IC50 is smaller, the one for P or the one for Q ? Select an item and report its label.
P

---

Target sequence: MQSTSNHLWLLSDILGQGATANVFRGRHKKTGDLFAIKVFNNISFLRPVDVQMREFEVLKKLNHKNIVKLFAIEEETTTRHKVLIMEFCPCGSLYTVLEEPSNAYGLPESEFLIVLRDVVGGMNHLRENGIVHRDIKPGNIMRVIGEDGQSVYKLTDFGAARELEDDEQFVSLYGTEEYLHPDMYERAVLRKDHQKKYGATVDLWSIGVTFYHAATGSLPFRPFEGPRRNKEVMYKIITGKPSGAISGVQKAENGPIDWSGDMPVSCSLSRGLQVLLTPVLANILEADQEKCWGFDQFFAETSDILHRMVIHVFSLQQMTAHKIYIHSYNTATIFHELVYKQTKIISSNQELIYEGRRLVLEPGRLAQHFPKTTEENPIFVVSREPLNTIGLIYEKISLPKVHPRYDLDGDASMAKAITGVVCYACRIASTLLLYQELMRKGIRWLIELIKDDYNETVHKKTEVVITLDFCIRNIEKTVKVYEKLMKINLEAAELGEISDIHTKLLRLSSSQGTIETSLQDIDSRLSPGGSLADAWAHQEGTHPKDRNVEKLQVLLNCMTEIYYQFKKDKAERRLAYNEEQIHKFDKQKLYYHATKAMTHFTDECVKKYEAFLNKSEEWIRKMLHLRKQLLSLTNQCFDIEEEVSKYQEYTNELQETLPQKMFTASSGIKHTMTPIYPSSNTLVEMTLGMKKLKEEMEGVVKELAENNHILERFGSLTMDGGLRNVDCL
pIC50: −log10 of the molar value.
quantity_name: pIC50

Previously resolved entries follow.
smiles_data: CCCOc1ccc(-c2cnc3[nH]cc(C4=CCN(C(=O)OC(C)(C)C)CC4)c3c2)cc1
pIC50: 5.77

smiles_data: CS(=O)(=O)c1cccc(-c2cnc3[nH]cc(C4=CCN(C(=O)NC5CCCC5)CC4)c3n2)c1
pIC50: 7.05

(P) NS(=O)(=O)c1ccc(-c2cnc3[nH]cc(C4=CCN(C(=O)NC5CCCC5)CC4)c3c2)cc1
(Q) COc1ccc(-c2cnc3[nH]cc(C4=CCN(C(=O)NC5CCCC5)CC4)c3c2)cc1OC
Which value of pIC50 is smaller, the one for P or the one for Q ? Select an item and report its label.
P
